Tested on: NCI-H526 (Small Cell Lung Carcinoma)
Test: combination Emax (second highest fraction inhibited in the dose matrix, 72 h); higher = more inhibition; extreme values may be limits of the assay
Entries and their measured combination Emax follow.

Use these answered entries as a reference point.
- Molecule: "CN(CCO)CC[C@H](CSc1ccccc1)Nc1ccc(S(=O)(=O)NC(=O)c2ccc(N3CCC([C@@H](O)c4ccccc4-c4ccc(Cl)cc4)CC3)cc2)cc1S(=O)(=O)C(F)(F)F [AZD4320] + C1CN(CCC1(C(=O)N[C@@H](CCO)C2=CC=C(C=C2)Cl)N)C3=NC=NC4=C3C=CN4 [Capivasertib] (first compound max 1 µM, 7x7, partner max 3 µM)"
  Tested system: "NCI-H526 (Small Cell Lung Carcinoma)"
  combination Emax: 0.929
- Molecule: "C[C@@H]1COCCN1c1cc(C2([S@](C)(=N)=O)CC2)nc(-c2ccnc3[nH]ccc23)n1 [AZD6738] + Nc1ccn([C@@H]2O[C@H](CO)[C@@H](O)C2(F)F)c(=O)n1 [Gemcitabine] (first compound max 10 µM, 7x7, partner max 0.3 µM)"
  Tested system: "NCI-H526 (Small Cell Lung Carcinoma)"
  combination Emax: 0.973
- Molecule: "NC1(C(=O)N[C@@H](CCO)c2ccc(Cl)cc2)CCN(c2ncnc3[nH]ccc23)CC1 [Capivasertib] + COc1nnc2ccc(N3CCC(c4ccc(OCCN5CCN(C)C(=O)[C@H]5C)cc4)CC3)nn12 [AZD5153] (first compound max 10 µM, 7x7, partner max 1 µM)"
  Tested system: "NCI-H526 (Small Cell Lung Carcinoma)"
  combination Emax: 0.983
- Molecule: "CS(=O)(=O)CCNCc1ccc(-c2ccc3ncnc(Nc4ccc(OCc5cccc(F)c5)c(Cl)c4)c3c2)o1 [Lapatinib] + C[C@@H](Oc1cc(-c2cnn(C3CCNCC3)c2)cnc1N)c1c(Cl)ccc(F)c1Cl [Crizotinib] (first compound max 10 µM, 7x7, partner max 10 µM)"
  Tested system: "NCI-H526 (Small Cell Lung Carcinoma)"
  combination Emax: 0.732
- Molecule: "CC(=O)c1c(C)c2cnc(Nc3ccc(N4CCNCC4)cn3)nc2n(C2CCCC2)c1=O [Palbociclib] + Cn1cnc2c(F)c(Nc3ccc(Br)cc3Cl)c(C(=O)NOCCO)cc21 [Selumetinib] (first compound max 10 µM, 7x7, partner max 10 µM)"
  Tested system: "NCI-H526 (Small Cell Lung Carcinoma)"
  combination Emax: 0.0977
- Molecule: "CN(CCO)CC[C@H](CSc1ccccc1)Nc1ccc(S(=O)(=O)NC(=O)c2ccc(N3CCC([C@@H](O)c4ccccc4-c4ccc(Cl)cc4)CC3)cc2)cc1S(=O)(=O)C(F)(F)F [AZD4320] + Cn1cnc2c(F)c(Nc3ccc(Br)cc3Cl)c(C(=O)NOCCO)cc21 [Selumetinib] (first compound max 1 µM, 7x7, partner max 3 µM)"
  Tested system: "NCI-H526 (Small Cell Lung Carcinoma)"
  combination Emax: 0.984

Continue with the next molecule.
Consider CC(=O)Nc1cccc(-n2c(=O)n(C3CC3)c(=O)c3c(Nc4ccc(I)cc4F)n(C)c(=O)c(C)c32)c1 [Trametinib] + Cc1nc(-c2cn3c(n2)-c2ccc(-c4cnn(C(C)(C)C(N)=O)c4)cc2OCC3)n(C(C)C)n1 [Taselisib] (first compound max 1 µM, 7x7, partner max 10 µM) . Its measured combination Emax is 0.304
